systemUnderTest: FYN (Homo sapiens, UniProt P06241)
Construct: purchased Eurofins DiscoverX KINOMEscan (scanTK)
Sequence (P06241 whole entry): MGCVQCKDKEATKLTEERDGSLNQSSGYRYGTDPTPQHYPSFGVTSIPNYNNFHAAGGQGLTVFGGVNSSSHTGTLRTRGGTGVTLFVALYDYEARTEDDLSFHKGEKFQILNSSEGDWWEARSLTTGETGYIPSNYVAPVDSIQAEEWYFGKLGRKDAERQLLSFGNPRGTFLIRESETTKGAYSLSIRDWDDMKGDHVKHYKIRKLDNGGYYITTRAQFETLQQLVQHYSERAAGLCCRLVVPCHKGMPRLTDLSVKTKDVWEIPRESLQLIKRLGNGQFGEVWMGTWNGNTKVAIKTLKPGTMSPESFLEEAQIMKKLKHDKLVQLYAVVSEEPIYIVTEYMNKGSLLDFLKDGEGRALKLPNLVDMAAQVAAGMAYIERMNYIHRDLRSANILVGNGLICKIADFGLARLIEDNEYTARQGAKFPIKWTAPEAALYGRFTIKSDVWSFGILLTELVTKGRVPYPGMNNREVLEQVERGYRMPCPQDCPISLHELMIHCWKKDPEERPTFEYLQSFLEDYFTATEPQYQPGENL
measurementDescription: KINOMEscan ScanTK
Type: binding
conditionInfo: @1000nM, read-out: %Control
recordedMetric: remaining binding at 1 µM (%)
The reply should be a number in %, with the unit left off.

Fill blank: measured remaining binding at 1 µM of the compound Cc1cnc(S(C)(=O)=O)nc1N1CCCC(n2nc(-c3ccc(Oc4ccccc4)cc3)c3c(N)ncnc32)C1 (centres unmarked) is ____.
17

Fill blank: measured remaining binding at 1 µM of the compound C=CC(=O)N1CCC[C@@H](n2nc(-c3ccc(Oc4ccccc4)cc3)c3c(N)ncnc32)C1 [Compound 1g, Ibrutinib, reference compound] is ____.
9.6

Fill blank: measured remaining binding at 1 µM of the compound COC(=O)c1cnc(S(C)(=O)=O)nc1N1CCCC(n2nc(-c3ccc(Oc4ccccc4)cc3)c3c(N)ncnc32)C1 (centres unmarked) is ____.
26

Fill blank: measured remaining binding at 1 µM of the compound `CCOC(=O)c1cnc(S(C)(=O)=O)nc1N1CCC[C@@H](n2nc(-c3ccc(Oc4ccccc4)cc3)c3c(N)ncnc32)C1` is ____.
40

Fill blank: measured remaining binding at 1 µM of the compound CNC(=O)c1cnc(S(C)(=O)=O)nc1N1CCCC(n2nc(-c3ccc(Oc4ccccc4)cc3)c3c(N)ncnc32)C1 (centres unmarked) is ____.
15

###

Task for the reader: assign each of the following compounds its reported remaining binding at 1 µM.
systemUnderTest: EPHB1 (Homo sapiens)
Construct: purchased Eurofins DiscoverX KINOMEscan (scanTK)
Sequence (P54762 18-984): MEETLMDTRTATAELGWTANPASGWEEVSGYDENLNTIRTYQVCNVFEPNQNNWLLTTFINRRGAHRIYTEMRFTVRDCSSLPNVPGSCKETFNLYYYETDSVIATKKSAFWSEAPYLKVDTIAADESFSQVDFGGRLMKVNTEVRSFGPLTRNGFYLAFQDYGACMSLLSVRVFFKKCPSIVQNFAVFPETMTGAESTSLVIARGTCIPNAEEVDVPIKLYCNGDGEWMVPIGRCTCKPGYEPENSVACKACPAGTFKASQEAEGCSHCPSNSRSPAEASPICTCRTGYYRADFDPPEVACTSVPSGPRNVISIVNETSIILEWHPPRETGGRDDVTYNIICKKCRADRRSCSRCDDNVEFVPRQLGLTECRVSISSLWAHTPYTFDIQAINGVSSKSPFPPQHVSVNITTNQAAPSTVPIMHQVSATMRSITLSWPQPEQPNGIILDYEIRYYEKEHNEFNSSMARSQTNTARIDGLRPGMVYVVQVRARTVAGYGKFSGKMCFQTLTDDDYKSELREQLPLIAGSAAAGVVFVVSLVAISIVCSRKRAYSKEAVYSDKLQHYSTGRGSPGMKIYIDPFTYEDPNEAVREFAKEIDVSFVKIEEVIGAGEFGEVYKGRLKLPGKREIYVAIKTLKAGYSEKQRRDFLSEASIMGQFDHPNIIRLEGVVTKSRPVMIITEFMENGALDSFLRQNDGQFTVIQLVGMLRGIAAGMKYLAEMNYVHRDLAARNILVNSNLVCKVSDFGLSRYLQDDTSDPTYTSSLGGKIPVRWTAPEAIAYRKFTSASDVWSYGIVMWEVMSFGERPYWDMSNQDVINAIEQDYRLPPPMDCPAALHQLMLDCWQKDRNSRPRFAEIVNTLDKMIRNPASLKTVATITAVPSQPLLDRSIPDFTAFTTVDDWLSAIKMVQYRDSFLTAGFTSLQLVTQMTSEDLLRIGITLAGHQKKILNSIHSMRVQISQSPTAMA
measurementDescription: KINOMEscan ScanTK
Type: binding
conditionInfo: @1000nM; EPHB1; read-out: %Control
The reply should be a number in %, with the unit left off.

Observed remaining binding at 1 µM on EPHB1 (Homo sapiens) for COC(=O)c1cnc(S(C)(=O)=O)nc1N1CCCC(n2nc(-c3ccc(Oc4ccccc4)cc3)c3c(N)ncnc32)C1 (stereo not shown) , please.
88

Observed remaining binding at 1 µM on EPHB1 (Homo sapiens) for CNC(=O)c1cnc(S(C)(=O)=O)nc1N1CCCC(n2nc(-c3ccc(Oc4ccccc4)cc3)c3c(N)ncnc32)C1 (stereo not shown) , please.
91

Observed remaining binding at 1 µM on EPHB1 (Homo sapiens) for Cc1cnc(S(C)(=O)=O)nc1N1CCCC(n2nc(-c3ccc(Oc4ccccc4)cc3)c3c(N)ncnc32)C1 (stereo not shown) , please.
93

Observed remaining binding at 1 µM on EPHB1 (Homo sapiens) for `CCOC(=O)c1cnc(S(C)(=O)=O)nc1N1CCC[C@@H](n2nc(-c3ccc(Oc4ccccc4)cc3)c3c(N)ncnc32)C1` , please.
91

###

systemUnderTest: ABL1(F317I)-nonphosphorylated (Homo sapiens, UniProt P00519, F317I)
Construct: purchased Eurofins DiscoverX KINOMEscan (scanTK)
measurementDescription: KINOMEscan ScanTK
Type: binding
conditionInfo: read-out: %Control @1000nM
recordedMetric: remaining binding at 1 µM (%)
The reply should be a number in %, with the unit left off.

Fill blank: measured remaining binding at 1 µM of the molecule Cc1cnc(S(C)(=O)=O)nc1N1CCCC(n2nc(-c3ccc(Oc4ccccc4)cc3)c3c(N)ncnc32)C1 (centres unmarked) is ____.
81

Fill blank: measured remaining binding at 1 µM of the molecule COC(=O)c1cnc(S(C)(=O)=O)nc1N1CCCC(n2nc(-c3ccc(Oc4ccccc4)cc3)c3c(N)ncnc32)C1 (centres unmarked) is ____.
82

Fill blank: measured remaining binding at 1 µM of the molecule C=CC(=O)N1CCC[C@@H](n2nc(-c3ccc(Oc4ccccc4)cc3)c3c(N)ncnc32)C1 [Compound 1g, Ibrutinib, reference compound] is ____.
52

Fill blank: measured remaining binding at 1 µM of the molecule CNC(=O)c1cnc(S(C)(=O)=O)nc1N1CCCC(n2nc(-c3ccc(Oc4ccccc4)cc3)c3c(N)ncnc32)C1 (centres unmarked) is ____.
85

Fill blank: measured remaining binding at 1 µM of the molecule `CCOC(=O)c1cnc(S(C)(=O)=O)nc1N1CCC[C@@H](n2nc(-c3ccc(Oc4ccccc4)cc3)c3c(N)ncnc32)C1` is ____.
98

###

Task for the reader: assign each of the following molecules its reported difference in %Control from compound Ib at 1 µM.
systemUnderTest: FGFR4 (Homo sapiens)
Construct: purchased Eurofins DiscoverX KINOMEscan (scanTK)
Sequence (P22455 22-802): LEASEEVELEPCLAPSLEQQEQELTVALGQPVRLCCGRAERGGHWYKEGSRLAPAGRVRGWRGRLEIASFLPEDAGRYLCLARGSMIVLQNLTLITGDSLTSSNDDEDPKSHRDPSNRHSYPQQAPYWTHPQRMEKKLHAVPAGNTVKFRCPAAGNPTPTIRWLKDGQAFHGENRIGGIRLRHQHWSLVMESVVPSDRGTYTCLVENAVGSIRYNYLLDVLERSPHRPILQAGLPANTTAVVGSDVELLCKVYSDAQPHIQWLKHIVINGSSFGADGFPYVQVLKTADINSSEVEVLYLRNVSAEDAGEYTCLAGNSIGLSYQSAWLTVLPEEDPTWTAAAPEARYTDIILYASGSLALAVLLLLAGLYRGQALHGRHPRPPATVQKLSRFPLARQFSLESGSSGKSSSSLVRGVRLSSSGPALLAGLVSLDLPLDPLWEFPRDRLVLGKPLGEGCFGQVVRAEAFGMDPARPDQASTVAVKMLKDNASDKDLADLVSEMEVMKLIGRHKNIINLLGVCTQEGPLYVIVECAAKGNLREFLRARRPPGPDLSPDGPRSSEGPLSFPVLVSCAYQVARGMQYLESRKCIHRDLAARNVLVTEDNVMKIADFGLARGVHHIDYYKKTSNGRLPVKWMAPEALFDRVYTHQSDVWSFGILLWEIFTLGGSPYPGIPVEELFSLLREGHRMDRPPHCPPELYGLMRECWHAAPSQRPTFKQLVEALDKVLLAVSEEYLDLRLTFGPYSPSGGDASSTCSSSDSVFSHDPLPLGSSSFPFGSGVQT
measurementDescription: KINOMEscan ScanTK
Type: binding
conditionInfo: @1000nM
The reply should be a number in %, with the unit left off.

Fill blank: measured difference in %Control from compound Ib at 1 µM of the molecule Cc1cnc(S(C)(=O)=O)nc1N1CCCC(n2nc(-c3ccc(Oc4ccccc4)cc3)c3c(N)ncnc32)C1 (stereo not shown) is ____.
1

Fill blank: measured difference in %Control from compound Ib at 1 µM of the molecule COC(=O)c1cnc(S(C)(=O)=O)nc1N1CCCC(n2nc(-c3ccc(Oc4ccccc4)cc3)c3c(N)ncnc32)C1 (stereo not shown) is ____.
-4

Fill blank: measured difference in %Control from compound Ib at 1 µM of the molecule `CCOC(=O)c1cnc(S(C)(=O)=O)nc1N1CCC[C@@H](n2nc(-c3ccc(Oc4ccccc4)cc3)c3c(N)ncnc32)C1` is ____.
-5

Fill blank: measured difference in %Control from compound Ib at 1 µM of the molecule CNC(=O)c1cnc(S(C)(=O)=O)nc1N1CCCC(n2nc(-c3ccc(Oc4ccccc4)cc3)c3c(N)ncnc32)C1 (stereo not shown) is ____.
4

###

systemUnderTest: CSF1R (Homo sapiens, UniProt P07333)
Construct: purchased Eurofins DiscoverX KINOMEscan (scanTK)
Sequence (P07333 20-972): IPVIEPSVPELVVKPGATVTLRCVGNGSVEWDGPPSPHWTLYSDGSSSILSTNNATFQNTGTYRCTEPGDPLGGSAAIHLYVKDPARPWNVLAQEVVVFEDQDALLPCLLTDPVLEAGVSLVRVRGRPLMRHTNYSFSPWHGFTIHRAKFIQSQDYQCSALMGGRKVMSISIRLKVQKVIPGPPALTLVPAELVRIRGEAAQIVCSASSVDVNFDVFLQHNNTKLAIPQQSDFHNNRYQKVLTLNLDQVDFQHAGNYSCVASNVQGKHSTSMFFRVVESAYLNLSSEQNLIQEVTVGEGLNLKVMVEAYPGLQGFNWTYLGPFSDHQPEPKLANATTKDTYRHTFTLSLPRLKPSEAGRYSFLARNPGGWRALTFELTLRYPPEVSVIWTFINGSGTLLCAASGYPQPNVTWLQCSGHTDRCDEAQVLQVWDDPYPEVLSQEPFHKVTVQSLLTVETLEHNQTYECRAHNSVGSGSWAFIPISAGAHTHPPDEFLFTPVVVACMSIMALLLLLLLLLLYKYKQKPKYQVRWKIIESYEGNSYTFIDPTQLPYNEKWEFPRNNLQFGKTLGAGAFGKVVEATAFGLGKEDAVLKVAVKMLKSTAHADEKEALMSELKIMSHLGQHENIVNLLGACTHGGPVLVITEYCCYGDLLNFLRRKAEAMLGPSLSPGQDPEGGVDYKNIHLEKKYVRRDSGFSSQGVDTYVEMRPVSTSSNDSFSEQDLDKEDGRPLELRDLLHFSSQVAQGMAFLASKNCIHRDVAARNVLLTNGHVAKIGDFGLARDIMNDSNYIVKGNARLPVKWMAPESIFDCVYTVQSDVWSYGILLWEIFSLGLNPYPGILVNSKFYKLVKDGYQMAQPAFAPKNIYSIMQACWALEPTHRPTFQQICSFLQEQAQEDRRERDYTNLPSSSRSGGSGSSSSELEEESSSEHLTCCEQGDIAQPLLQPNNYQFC
measurementDescription: KINOMEscan ScanTK
Format: binding
conditionInfo: @1000nM, read-out: %Control
recordedMetric: remaining binding at 1 µM
Record the result as number plus unit.

Fill blank: measured remaining binding at 1 µM of the compound COC(=O)c1cnc(S(C)(=O)=O)nc1N1CCCC(n2nc(-c3ccc(Oc4ccccc4)cc3)c3c(N)ncnc32)C1 (centres unmarked) is ____.
92%

Fill blank: measured remaining binding at 1 µM of the compound `CCOC(=O)c1cnc(S(C)(=O)=O)nc1N1CCC[C@@H](n2nc(-c3ccc(Oc4ccccc4)cc3)c3c(N)ncnc32)C1` is ____.
96%

Fill blank: measured remaining binding at 1 µM of the compound Cc1cnc(S(C)(=O)=O)nc1N1CCCC(n2nc(-c3ccc(Oc4ccccc4)cc3)c3c(N)ncnc32)C1 (centres unmarked) is ____.
92%

Fill blank: measured remaining binding at 1 µM of the compound CNC(=O)c1cnc(S(C)(=O)=O)nc1N1CCCC(n2nc(-c3ccc(Oc4ccccc4)cc3)c3c(N)ncnc32)C1 (centres unmarked) is ____.
99%

Fill blank: measured remaining binding at 1 µM of the compound C=CC(=O)N1CCC[C@@H](n2nc(-c3ccc(Oc4ccccc4)cc3)c3c(N)ncnc32)C1 [Compound 1g, Ibrutinib, reference compound] is ____.
80%

###

systemUnderTest: ABL1(H396P)-nonphosphorylated (Homo sapiens, UniProt P00519, H396P)
Construct: purchased Eurofins DiscoverX KINOMEscan (scanTK)
measurementDescription: KINOMEscan ScanTK
Type: binding
conditionInfo: read-out: %Control @1000nM
Mark each entry satisfied if its remaining binding at 1 µM sits below 40%, and not satisfied for all others.

Criterion: remaining binding at 1 µM strictly below 40%. Is it met by `CCOC(=O)c1cnc(S(C)(=O)=O)nc1N1CCC[C@@H](n2nc(-c3ccc(Oc4ccccc4)cc3)c3c(N)ncnc32)C1` ?
not satisfied

Criterion: remaining binding at 1 µM strictly below 40%. Is it met by COC(=O)c1cnc(S(C)(=O)=O)nc1N1CCCC(n2nc(-c3ccc(Oc4ccccc4)cc3)c3c(N)ncnc32)C1 (centres unmarked) ?
not satisfied

Criterion: remaining binding at 1 µM strictly below 40%. Is it met by C=CC(=O)N1CCC[C@@H](n2nc(-c3ccc(Oc4ccccc4)cc3)c3c(N)ncnc32)C1 [Compound 1g, Ibrutinib, reference compound] ?
satisfied

Criterion: remaining binding at 1 µM strictly below 40%. Is it met by Cc1cnc(S(C)(=O)=O)nc1N1CCCC(n2nc(-c3ccc(Oc4ccccc4)cc3)c3c(N)ncnc32)C1 (centres unmarked) ?
not satisfied

Criterion: remaining binding at 1 µM strictly below 40%. Is it met by CNC(=O)c1cnc(S(C)(=O)=O)nc1N1CCCC(n2nc(-c3ccc(Oc4ccccc4)cc3)c3c(N)ncnc32)C1 (centres unmarked) ?
not satisfied

###

systemUnderTest: ALK(L1196M) (Homo sapiens, UniProt Q9UM73, L1196M)
Construct: purchased Eurofins DiscoverX KINOMEscan (scanTK)
Sequence (Q9UM73 19-1620 L1196M): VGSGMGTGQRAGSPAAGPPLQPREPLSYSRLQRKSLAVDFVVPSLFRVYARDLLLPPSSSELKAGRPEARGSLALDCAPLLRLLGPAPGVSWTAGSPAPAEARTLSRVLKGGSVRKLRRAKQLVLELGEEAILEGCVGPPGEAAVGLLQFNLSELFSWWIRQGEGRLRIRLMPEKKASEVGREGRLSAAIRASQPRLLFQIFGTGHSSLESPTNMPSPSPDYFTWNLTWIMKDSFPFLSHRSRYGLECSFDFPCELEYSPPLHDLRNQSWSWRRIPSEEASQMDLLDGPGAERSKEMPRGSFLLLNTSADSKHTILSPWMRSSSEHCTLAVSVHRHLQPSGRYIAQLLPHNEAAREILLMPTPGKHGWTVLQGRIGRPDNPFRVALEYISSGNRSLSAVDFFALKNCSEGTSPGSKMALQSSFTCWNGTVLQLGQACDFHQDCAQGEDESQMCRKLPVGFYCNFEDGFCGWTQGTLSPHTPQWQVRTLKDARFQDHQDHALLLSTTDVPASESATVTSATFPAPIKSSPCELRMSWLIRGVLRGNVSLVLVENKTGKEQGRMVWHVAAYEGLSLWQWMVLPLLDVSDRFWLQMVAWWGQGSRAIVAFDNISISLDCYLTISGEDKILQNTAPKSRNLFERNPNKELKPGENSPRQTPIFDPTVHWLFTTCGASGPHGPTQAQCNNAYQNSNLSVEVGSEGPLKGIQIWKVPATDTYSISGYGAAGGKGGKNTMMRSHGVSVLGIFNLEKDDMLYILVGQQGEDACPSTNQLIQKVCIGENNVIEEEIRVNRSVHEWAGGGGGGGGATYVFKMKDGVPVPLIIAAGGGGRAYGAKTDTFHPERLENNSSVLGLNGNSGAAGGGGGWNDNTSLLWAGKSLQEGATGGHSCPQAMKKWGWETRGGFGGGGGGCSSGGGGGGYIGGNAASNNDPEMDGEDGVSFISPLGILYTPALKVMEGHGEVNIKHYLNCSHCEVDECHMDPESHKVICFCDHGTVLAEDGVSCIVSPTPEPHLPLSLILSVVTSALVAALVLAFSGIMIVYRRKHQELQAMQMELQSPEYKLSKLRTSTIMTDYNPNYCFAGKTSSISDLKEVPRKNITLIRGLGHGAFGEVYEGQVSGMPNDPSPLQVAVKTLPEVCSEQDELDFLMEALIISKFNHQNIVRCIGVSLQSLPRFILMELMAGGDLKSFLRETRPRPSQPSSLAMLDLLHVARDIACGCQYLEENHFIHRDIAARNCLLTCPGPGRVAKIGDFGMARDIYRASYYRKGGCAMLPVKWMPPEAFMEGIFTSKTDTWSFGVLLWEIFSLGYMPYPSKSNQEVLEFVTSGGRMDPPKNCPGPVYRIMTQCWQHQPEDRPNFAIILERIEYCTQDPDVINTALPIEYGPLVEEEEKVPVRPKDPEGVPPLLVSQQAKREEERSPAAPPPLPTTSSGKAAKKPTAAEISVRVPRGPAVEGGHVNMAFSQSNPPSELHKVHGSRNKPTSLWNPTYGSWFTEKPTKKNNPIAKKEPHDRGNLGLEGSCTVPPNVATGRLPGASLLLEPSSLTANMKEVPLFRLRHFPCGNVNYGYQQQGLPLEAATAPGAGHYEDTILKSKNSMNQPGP
measurementDescription: KINOMEscan ScanTK
Assay type: binding
conditionInfo: read-out: %Control @1000nM
Task for the reader: assign each of the following compounds its reported remaining binding at 1 µM.
The reply should be a number in %, with the unit left off.

Fill blank: measured remaining binding at 1 µM of the compound Cc1cnc(S(C)(=O)=O)nc1N1CCCC(n2nc(-c3ccc(Oc4ccccc4)cc3)c3c(N)ncnc32)C1 (centres unmarked) [Compound 8a] is ____.
95

Fill blank: measured remaining binding at 1 µM of the compound COC(=O)c1cnc(S(C)(=O)=O)nc1N1CCCC(n2nc(-c3ccc(Oc4ccccc4)cc3)c3c(N)ncnc32)C1 (centres unmarked) [Compound 8b] is ____.
92

Fill blank: measured remaining binding at 1 µM of the compound CCOC(=O)c1cnc(S(C)(=O)=O)nc1N1CCC[C@@H](n2nc(-c3ccc(Oc4ccccc4)cc3)c3c(N)ncnc32)C1 [Compound 8c] is ____.
77

Fill blank: measured remaining binding at 1 µM of the compound CNC(=O)c1cnc(S(C)(=O)=O)nc1N1CCCC(n2nc(-c3ccc(Oc4ccccc4)cc3)c3c(N)ncnc32)C1 (centres unmarked) [Compound 8d] is ____.
79

Fill blank: measured remaining binding at 1 µM of the compound C=CC(=O)N1CCC[C@@H](n2nc(-c3ccc(Oc4ccccc4)cc3)c3c(N)ncnc32)C1 [Compound 1g, Ibrutinib, reference compound] is ____.
100
